Biological target: T1, human IL-11 (AAH12506.1, Pro22-Leu199) (human, UniProt P20809 22-199)
T1 construct: The range Pro22-Leu199 counts on AAH12506.1; The Octet runs say only 'human IL-11'; also called hIL-11
T1 chain: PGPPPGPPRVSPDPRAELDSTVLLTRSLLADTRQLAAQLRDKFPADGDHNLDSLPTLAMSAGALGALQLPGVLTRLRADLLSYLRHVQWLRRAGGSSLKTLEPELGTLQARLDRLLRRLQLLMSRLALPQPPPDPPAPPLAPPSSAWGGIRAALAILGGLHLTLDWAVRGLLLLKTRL
Test: BLI (Octet), antibody captured, human IL-11 in solution
Can you tell me koff for the items I'm about to list?
Answers are plain numbers, in s⁻¹.

Please look at the items below and tell me koff for each one, in order.
1. hz18A10-VHm8 + hz18A10-VLm19 (antibody, V domains shown, Constant regions not restated for this antibody) VH: EVQLVQSGAEVKKPGASVKVSCKASGYTFTTYDMHWVRQAPGQGLEWMGTIYPGNGDTSYNQKFKGRVTMTRDTSTSTVYMELSSLRSEDTAVYYCARGDLYALDYWGQGTLVTVSS VL: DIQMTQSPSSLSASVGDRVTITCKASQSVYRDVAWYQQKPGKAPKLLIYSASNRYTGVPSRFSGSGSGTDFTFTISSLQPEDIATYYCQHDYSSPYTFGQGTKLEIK
2. hz18A10-VHm9 + hz18A10-VLm19 (antibody, V domains shown, Constant regions not restated for this antibody) VH: EVQLVQSGAEVKKPGASVKVSCKASGYTFTTYDMSWVRQAPGQGLEWMGTIYPGNGDTSYNQKFKGRVTMTRDTSTSTVYMELSSLRSEDTAVYYCARGDLYALDYWGQGTLVTVSS VL: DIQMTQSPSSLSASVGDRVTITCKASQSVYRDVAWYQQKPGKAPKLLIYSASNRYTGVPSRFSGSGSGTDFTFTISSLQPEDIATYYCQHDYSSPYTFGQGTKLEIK
3. hz18A10-VHm20 + hz18A10-VLm19 (antibody, V domains shown, Constant regions not restated for this antibody) VH: EVQLVQSGAEVKKPGASVKVSCKASGYTFTHYNMDWVRQAPGQGLEWMGTIYPGQGDTSYNQKFKGRVTMTRDTSTSTVYMELSSLRSEDTAVYYCARGDLYALDYWGQGTLVTVSS VL: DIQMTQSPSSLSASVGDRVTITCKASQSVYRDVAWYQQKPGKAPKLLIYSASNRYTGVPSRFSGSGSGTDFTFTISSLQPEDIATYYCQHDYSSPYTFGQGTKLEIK

Completion:
0.0011
0.000448
0.000227

Data credit: patent US20250197488A1
